# target or system: human 11β-HSD2 (Homo sapiens, UniProt P80365)
# Construct: the full-length cDNAs of human or marine 11β-HSD1 and 11β-HSD2 were isolated from the cDNA libraries; microsomal fraction
# Sequence (P80365 1-405): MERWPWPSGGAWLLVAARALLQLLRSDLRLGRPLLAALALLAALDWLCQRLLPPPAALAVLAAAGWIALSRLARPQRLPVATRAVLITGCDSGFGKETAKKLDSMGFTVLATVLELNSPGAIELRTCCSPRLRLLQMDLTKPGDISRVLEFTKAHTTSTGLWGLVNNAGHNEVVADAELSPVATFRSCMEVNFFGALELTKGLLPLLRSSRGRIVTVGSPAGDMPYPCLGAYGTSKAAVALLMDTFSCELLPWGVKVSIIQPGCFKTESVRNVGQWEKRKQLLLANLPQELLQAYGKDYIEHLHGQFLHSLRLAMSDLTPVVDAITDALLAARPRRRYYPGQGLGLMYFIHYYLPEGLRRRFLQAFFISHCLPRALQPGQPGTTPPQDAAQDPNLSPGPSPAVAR
# assay procedure: Inhibition of human 11β-HSD2, SPA with microsomes from transfected HEK-293 cells
# condition notes: [3H]cortisol, NAD+, n = 2
# Experimental: Glucocorticoid hormones play important roles in many biological and physiological processes, including regulation of energy metabolism; inflammatory, immune and stress responses; and cardiovascular homeostasis. […] IC50 (X ° S.D., n = 2) values were calculated by using Prism Version 4 (GraphPad Software, San Diego, CA, USA.). […]
Measured IC50 values are reported for all entries that follow.
recorded metric: IC50 (nM)

• CC(C)=CCCC(C)C1CCC2(C)C3=C(CCC12C)C1(C)CCC(O)C(C)(C)C1CC3=O (stereo not drawn) [Compound 4, Kansenone] = 107
• C=C(CC[C@](C)(O)[C@@H]1CC[C@]2(C)C3CCC4C(C)(C)[C@@H](O)CC[C@]4(C)C3CC[C@@]12C)C(C)C (stereo partly drawn) [Compound 1, Euphane-3β,20-dihydroxy-24-ene] = 8180
• C[C@H](C/C=C/C(C)(C)O)[C@@H]1CC[C@]2(C)C3=C(CC[C@@]12C)[C@@]1(C)CC[C@H](O)C(C)(C)C1CC3 (stereo partly drawn) [Compound 6, (20R,23E)-Eupha-8,23-diene-3β,25-diol] = 666
• CC(C)=CCC[C@@H](C)[C@@H]1CC[C@]2(C)C3=C(CC[C@@]12C)[C@@]1(C)CC[C@H](O)C(C)(C)[C@@H]1CC3 [Compound 3, Euphol] = 395
• CC(C)=CCC[C@@H](C)[C@@H]1CC[C@]2(C)C(=O)[C@]3(CC[C@@]12C)[C@@H](O)CC1C(C)(C)[C@@H](O)CC[C@@]13C (stereo partly drawn) [Compound 2, Kansuinone] = 2630
• C=C(C)[C@@H](O)CC[C@@H](C)[C@@H]1CC[C@]2(C)C3=C(CC[C@@]12C)[C@@]1(C)CC[C@H](O)C(C)(C)C1CC3 (stereo partly drawn) [Compound 5, (24R)-Eupha-8,25-diene-3β,24-diol] = 1690
